Record: IC50 reported on Genome polyprotein (rhinovirus A16).
Sequence (Q82122 1511-1693 limits assumed): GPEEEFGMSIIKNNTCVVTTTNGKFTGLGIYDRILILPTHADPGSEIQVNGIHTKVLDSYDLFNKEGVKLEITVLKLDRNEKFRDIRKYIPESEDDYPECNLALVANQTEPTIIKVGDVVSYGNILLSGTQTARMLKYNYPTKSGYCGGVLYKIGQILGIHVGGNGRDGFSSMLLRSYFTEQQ

* O=C(Oc1cc(=O)[nH]c2ccccc12)c1ccco1 | 200 nM
* O=C(Oc1cncc(Br)c1)c1ccco1 | 80 nM
* CCOc1nc(/C=C/c2ccccc2)oc1C(=O)Oc1cncc(Cl)c1 | 690 nM
* O=C(Oc1cncc(Cl)c1)c1cnc[nH]1 | 290 nM

Read the next record carefully.
input: Report IC50 on Genome polyprotein (rhinovirus A16) for this entry: O=C(Oc1cncc(Cl)c1)c1ccc2ccccc2c1
output: 710 nM

###

- STUDY_TARGET: Genome polyprotein (rhinovirus A16) (UniProt Q82122)
- Sequence (Q82122 whole entry): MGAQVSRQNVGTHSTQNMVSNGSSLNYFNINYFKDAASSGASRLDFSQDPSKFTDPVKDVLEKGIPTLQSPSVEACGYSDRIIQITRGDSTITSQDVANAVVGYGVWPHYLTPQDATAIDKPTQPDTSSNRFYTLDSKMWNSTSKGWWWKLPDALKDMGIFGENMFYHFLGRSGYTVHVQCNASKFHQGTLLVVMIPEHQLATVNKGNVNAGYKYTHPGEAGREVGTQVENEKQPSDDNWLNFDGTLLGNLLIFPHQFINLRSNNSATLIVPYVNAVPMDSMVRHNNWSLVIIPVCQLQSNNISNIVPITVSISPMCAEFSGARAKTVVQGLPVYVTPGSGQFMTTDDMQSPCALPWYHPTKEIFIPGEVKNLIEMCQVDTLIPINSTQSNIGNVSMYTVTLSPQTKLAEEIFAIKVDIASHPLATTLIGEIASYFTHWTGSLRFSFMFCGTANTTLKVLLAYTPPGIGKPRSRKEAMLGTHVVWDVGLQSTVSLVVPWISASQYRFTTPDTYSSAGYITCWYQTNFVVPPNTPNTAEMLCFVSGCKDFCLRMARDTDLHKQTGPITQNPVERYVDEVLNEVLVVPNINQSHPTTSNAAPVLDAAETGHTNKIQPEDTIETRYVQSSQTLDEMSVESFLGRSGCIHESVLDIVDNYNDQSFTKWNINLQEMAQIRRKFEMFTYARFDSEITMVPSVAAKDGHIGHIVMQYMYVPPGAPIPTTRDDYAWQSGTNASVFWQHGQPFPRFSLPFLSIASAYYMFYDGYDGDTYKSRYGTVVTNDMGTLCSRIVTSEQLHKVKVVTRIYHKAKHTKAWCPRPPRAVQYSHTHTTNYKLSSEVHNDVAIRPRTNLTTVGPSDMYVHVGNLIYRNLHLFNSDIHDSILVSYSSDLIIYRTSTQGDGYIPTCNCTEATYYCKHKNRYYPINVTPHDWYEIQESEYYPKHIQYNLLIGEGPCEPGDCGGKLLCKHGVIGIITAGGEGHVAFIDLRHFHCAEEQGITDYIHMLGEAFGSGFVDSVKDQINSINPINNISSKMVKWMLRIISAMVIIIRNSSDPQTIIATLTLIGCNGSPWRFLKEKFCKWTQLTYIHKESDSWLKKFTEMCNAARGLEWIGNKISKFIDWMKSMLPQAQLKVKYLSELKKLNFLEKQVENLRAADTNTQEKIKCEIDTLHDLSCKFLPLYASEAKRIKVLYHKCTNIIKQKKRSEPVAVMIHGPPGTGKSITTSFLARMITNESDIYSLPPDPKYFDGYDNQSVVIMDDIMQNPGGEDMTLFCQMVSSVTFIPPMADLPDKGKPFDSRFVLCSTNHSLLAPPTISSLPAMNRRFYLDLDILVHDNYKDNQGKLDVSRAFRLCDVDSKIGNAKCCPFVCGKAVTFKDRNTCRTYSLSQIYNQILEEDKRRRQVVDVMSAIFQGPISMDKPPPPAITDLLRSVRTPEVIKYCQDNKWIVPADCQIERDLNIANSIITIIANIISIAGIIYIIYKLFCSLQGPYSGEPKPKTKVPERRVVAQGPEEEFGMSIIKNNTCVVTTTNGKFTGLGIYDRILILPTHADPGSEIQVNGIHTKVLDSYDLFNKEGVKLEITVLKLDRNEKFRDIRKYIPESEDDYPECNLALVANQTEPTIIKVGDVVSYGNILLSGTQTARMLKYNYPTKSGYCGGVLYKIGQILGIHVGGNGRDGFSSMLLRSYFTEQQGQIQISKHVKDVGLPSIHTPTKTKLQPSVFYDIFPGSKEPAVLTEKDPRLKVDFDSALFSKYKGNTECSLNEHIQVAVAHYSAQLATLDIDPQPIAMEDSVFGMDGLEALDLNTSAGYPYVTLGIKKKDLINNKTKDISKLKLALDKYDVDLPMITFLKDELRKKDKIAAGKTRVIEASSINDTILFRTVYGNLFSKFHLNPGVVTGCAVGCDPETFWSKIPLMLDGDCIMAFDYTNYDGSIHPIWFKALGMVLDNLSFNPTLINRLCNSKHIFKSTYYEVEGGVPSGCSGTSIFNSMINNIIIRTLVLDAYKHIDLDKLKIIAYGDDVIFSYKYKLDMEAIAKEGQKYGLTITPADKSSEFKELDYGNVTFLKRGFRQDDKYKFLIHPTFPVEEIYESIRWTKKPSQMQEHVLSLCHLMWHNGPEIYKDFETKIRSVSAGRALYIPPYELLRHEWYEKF
- ASSAY_NOTES: Inhibition of HRV-16 protease 3C expressed in Escherichia coli BL21(DE3) at 1 uM by FRET assay
MEASURED_ATTRIBUTE: inhibition

* O=C(CCc1ccccc1)Oc1cncc(Br)c1 | 34%
* O=C(Oc1cncc(Br)c1)c1ccco1 | 90%
* O=C(Oc1cncc(Cl)c1)c1ccc2ccccc2c1 | 80%
* Cc1ccc(-c2ccc(C(=O)Oc3cncc(Cl)c3)o2)cc1 | 79%
* O=C(Oc1cncc(Cl)c1)c1ccccc1 | 59%

input: Tell me its inhibition given NC(=O)c1cccc(OC(=O)c2ccco2)c1 as the entry.
output: 5%

input: Tell me its inhibition given CCOc1nc(Cc2ccccc2)oc1C(=O)Oc1cncc(Cl)c1 as the entry.
output: 5%

input: Tell me its inhibition given NC(=O)c1ncccc1OC(=O)c1ccco1 as the entry.
output: 14%

###

- STUDY_TARGET: Genome polyprotein (rhinovirus A16) (UniProt Q82122)
- ASSAY_NOTES: Inhibition of HRV-16 protease 3C expressed in Escherichia coli BL21(DE3) at 1 uM by FRET assay
The source made the active and inactive calls. The calls are words filed in the database; no cut-off is given here.
MEASURED_ATTRIBUTE: inhibition

Previously resolved entries follow.
* O=C(Oc1cncc(Cl)c1)c1cccs1 | 64%
* O=C(Oc1cccnc1C(=O)O)c1ccco1 | inactive
* O=C(Oc1cncc(Cl)c1)c1c[nH]cn1 | 82%
* O=C(Oc1ccncc1)c1ccco1 | inactive
* CCOc1nc(C(c2ccccc2)c2ccccc2)oc1C(=O)Oc1cncc(Cl)c1 | 5%

input: Tell me its inhibition given O=C(/C=C/c1ccccc1)Oc1cncc(Br)c1 as the entry.
output: 63%

input: Tell me its inhibition given O=C(Oc1ccccn1)c1ccco1 as the entry.
output: inactive

input: Tell me its inhibition given O=C(Oc1cncc(Cl)c1)c1ccco1 as the entry.
output: 87%

###

- STUDY_TARGET: Genome polyprotein (rhinovirus A16)
- ASSAY_NOTES: Inhibition of HRV-16 protease 3C expressed in Escherichia coli BL21(DE3) at 1 uM by FRET assay
A collection of compounds and their measured inhibition

Previously resolved entries follow.
• NC(=O)c1ccc(OC(=O)c2ccco2)cc1 = 5%
• O=C(Oc1cncc(Cl)c1)c1ccc(-c2ccc([N+](=O)[O-])cc2)o1 = 60%
• O=C(Oc1cncc(Cl)c1)c1cn(-c2ccc(C(F)(F)F)cc2)cn1 = 40%
• O=C(Oc1cncc(Cl)c1)c1ccc(-c2ccc(Cl)cc2)o1 = 89%
• O=C(Oc1cccnc1)c1ccco1 = 8%

input: Tell me its inhibition given O=C(Oc1cncc(Cl)c1)c1cccc2ccccc12 as the entry.
output: 75%

input: Tell me its inhibition given O=C(Oc1cc(=O)[nH]c2ccccc12)c1ccco1 as the entry.
output: 98%

Reference source for all entries: ChEMBL document CHEMBL1136973
